Known MIC of a selection of compounds
- Tested on: S. aureus SA-1199B (NorA efflux pump overexpressed)
- assay_details: MIC and checkerboard (FIC) assay
- measurement_parameters: Staphylococcus aureus, read-out: Minimum inhibitory concentration to compound (MIC), 1199B′; Table 8
parameter_measured: MIC

> print(dat)
                                   compound                               target.desc  endpoint.value
1  C=C(C)C(CC=C(C)C)Cc1c(O)cc(OC)c(C(=O)/C=C/c2ccc(O)cc2O)c1O (stereo not shown)  S. aureus SA-1199B (NorA efflux pump overexpressed)         8 µg/mL
2  C=C(C)C(CC=C(C)C)Cc1c(O)cc(OC)c(C(=O)/C=C/c2ccc(O)cc2)c1O (stereo not shown)  S. aureus SA-1199B (NorA efflux pump overexpressed)         8 µg/mL
3  C=C(C)C(CC=C(C)C)Cc1c(O)cc(OC)c(C(=O)/C=C/c2ccc(O)cc2OC)c1O (racemic)  S. aureus SA-1199B (NorA efflux pump overexpressed)        64 µg/mL
4  C=C(C)C(CC=C(C)C)Cc1c(O)cc(OC)c(C(=O)/C=C/c2ccccc2O)c1O (stereo not shown)  S. aureus SA-1199B (NorA efflux pump overexpressed)         8 µg/mL
